system-tested: rat calcitonin receptor (rat) (UniProt P32214)
experimental-details: SPA competition vs 125I-calcitonin, membranes with rat CTR (Assay VIII)
Numbered stars: 1 amine (or outer) side, 2 acyl side, 3 side chain; on linkers, the order of the positions; unused ones are H or OH. Side chains are listed from the residue outwards. * marks the point of attachment. C20 diacid = O=C(O)CCCCCCCCCCCCCCCCCCC(=O)*; C18 diacid = O=C(O)CCCCCCCCCCCCCCCCC(=O)*; C16 diacid = O=C(O)CCCCCCCCCCCCCCC(=O)*; γGlu = O=C(O)[C@H](CCC(=O)[*:2])N[*:1]; C14 diacid = O=C(O)CCCCCCCCCCCCC(=O)*
Here, each record is paired with measured IC50 data.
API: value field is a number in nM; no unit string.

Check out these entries, answers already filled in.
binder	IC50, nM
Ac-ASK([γGlu-C20 diacid])LSTAALGRLSAELHELATLPRTETGSGSP-NH2 [[N-terminal(acetyl), des1, 4K(C20 diacid-gGlu), 30S, 31G]mimylin]	0.01
{C16 diacid}-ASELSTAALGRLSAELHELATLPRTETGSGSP-NH2 [[N-terminal(C16 diacid), des1, 30S, 31G]mimylin]	0.011
Ac-ASELSTAALGRLSAELHK([γGlu-C20 diacid])LATLPRTETGSGSP-NH2 [[N-terminal(acetyl), des1, 19K(C20 diacid-gGlu), 30S, 31G]mimylin]	0.071
{C18 diacid}-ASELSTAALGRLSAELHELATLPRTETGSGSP-NH2 [[N-terminal(C18 diacid), des1, 30S, 31G]mimylin]	0.013

Ask: Field request: IC50 | item: {C20 diacid-γGlu}-ASELSTAALGHLSAELHELATLPRTETGSGSP-NH2 [[N-terminal(C20 diacid-gGlu), des1, 12H, 30S, 31G]mimylin]
Result: 0.085

Ask: # repeat for {C14 diacid-γGlu}-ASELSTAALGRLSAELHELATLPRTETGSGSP-NH2 [[N-terminal(C14 diacid-gGlu), des1, 30S, 31G]mimylin]
Result: 0.017
